Reported TGI is given for each of the following compounds.
Test system: COLO 205 colon
Experiment: NCI tumour cell line growth inhibition, 48 h

- COc1ccccc1-n1cnc(N)c1C(=O)c1cc(OC)c(OC)c(OC)c1: 40.3 µM

get_value(item= `CCCCCC/C=C/C#CCCCCCCCC(=O)O` , readout=TGI) returns > 100 µM

get_value(item= COc1ccccc1C1C2=C(COC2=O)Oc2cc3c(cc21)OCO3 (stereo not given) , readout=TGI) returns 14.2 µM

get_value(item= `Cc1cc2c(cc1Cl)SC(N(c1ccccc1Cl)S(=O)(=O)c1ccc(Br)s1)=NS2(=O)=O` , readout=TGI) returns 28 µM

get_value(item= `C[C@@H]1C[C@H]2OC(=O)[C@@]3(C)CCC[C@@](C)([C@@H]23)[C@@]1(O)CCc1ccoc1` , readout=TGI) returns > 100 µM

get_value(item= `N/C(=N\N=C\c1cc2ccccc2s1)c1cnccn1` , readout=TGI) returns > 100 µM

get_value(item= `COc1cccc(N/C(C)=C2/CCOC2=O)c1` , readout=TGI) returns > 10 µM

get_value(item= `CC1=C(C(=O)Nc2cccc(Cl)c2)C(c2ccccc2O)C(C(=O)Nc2cccc(Cl)c2)=C(C)N1` , readout=TGI) returns 43.2 µM

get_value(item= `O/N=C1/CCC/C1=C\c1ccccc1` , readout=TGI) returns > 100 µM

get_value(item= `Cc1ccc2nc(N)[nH]c(=O)c2c1Sc1ccncc1` , readout=TGI) returns > 100 µM

get_value(item= `O=c1cc(-c2ccc(Cl)cc2)[nH]c2ccccc12` , readout=TGI) returns > 100 µM

get_value(item= `O=C(O)c1cc(N=Nc2ccc([N+](=O)[O-])cc2)ccc1O` , readout=TGI) returns > 100 µM

get_value(item= CC1(CO)C(O)CCC2(C)C1CCC1CC3CC12CCC3(O)CO (stereo not given) , readout=TGI) returns > 100 µM

get_value(item= Cc1cc(=O)oc2c(C3=NN(C=O)C(c4ccccc4)C3)c(O)ccc12 (stereo not given) , readout=TGI) returns > 81.1 µM

get_value(item= `COc1ccc(-c2nn(-c3cccc(Cl)c3)cc2/C=C2\NC(=S)N(c3ccc(Cl)cc3)C2=O)cc1` , readout=TGI) returns 11 µM

----------
Test system: HL-60(TB) leukemia
Assay: NCI tumour cell line growth inhibition, 48 h
Endpoint name: TGI

- CC12NC(=C(C#N)C#N)C(C#N)=C3NC(N)=C(C#N)C(=C31)Oc1ccccc12 (centres undefined): > 74.9 µM
- Cc1c(C)c2c(c(C)c1OC(=O)CCC(=O)[O-])CCC(C)(CCCCCCCCCCC[P+](c1ccccc1)(c1ccccc1)c1ccccc1)O2 (centres undefined): 0.566 µM
- COc1ccc(-c2nn(-c3cccc(Cl)c3)cc2/C=C2\NC(=S)N(c3ccc(Cl)cc3)C2=O)cc1: > 25 µM

Field: next compound
get_value(item= `O=c1oc2ccc([N+](=O)[O-])cc2nc1/C=C(\O)c1ccccc1` , readout=TGI) returns > 100 µM

----------
System: UO-31 renal
Test: NCI tumour cell line growth inhibition, 48 h
Reported log10(TGI) is given for each of the following compounds.
Form field - Quantity: TGI; Unit: µM; Scale: log10

* COc1cccc(/C=N/[N-]C(=O)c2ccncc2)c1[O-].[Mn+2].[OH3+] | 1.42

get_value(item= `Cc1cccc2c(N)c3cccc(C(=O)NCC[N+](C)(C)Cc4ccc([N+](=O)[O-])n4C)c3nc12` , readout=log10(TGI)) returns 1.87

get_value(item= `COc1ccc2[nH]c(Cl)c(/C=C3/C(=O)Nc4ccccc43)c2c1` , readout=log10(TGI)) returns 1.00

get_value(item= `C/C(NNC(=O)c1ccccc1O)=C1\C=Nc2ccccc2S1` , readout=log10(TGI)) returns 0.75

get_value(item= OC1(c2ccccc2)CC2CCC(C1)N2CCCC(O)(c1ccccc1)c1ccccc1 (configuration not stated) , readout=log10(TGI)) returns 1.31

get_value(item= `NC(N)=NN=c1c(=O)c2ccccc2c1=O` , readout=log10(TGI)) returns 1.30

get_value(item= `CCCCCCCCCCC(=O)CCCCCCC(=O)O` , readout=log10(TGI)) returns 1.86

get_value(item= `Cc1nnc(C[C@@H]2C=C(c3ccc(Cl)cc3)c3ccccc3-n3c(C)nnc32)o1` , readout=log10(TGI)) returns 1.65

get_value(item= `Clc1ccc(-c2cc(-c3ccccc3)nc(N3CCN(CCCNc4ccnc5cc(Cl)ccc45)CC3)n2)cc1` , readout=log10(TGI)) returns 0.46

get_value(item= `Cc1ccc(Nc2c3c(c(C#N)c4nc5ccccc5n24)CCCC3)cc1` , readout=log10(TGI)) returns 1.82

get_value(item= `Cc1cc(S(=O)(=O)/N=C(\N)Nc2cccc(O)c2)c(SCc2ccccc2)cc1Cl` , readout=log10(TGI)) returns 1.44

get_value(item= `N#Cc1ncc(C(Cl)Cl)nc1Cl` , readout=log10(TGI)) returns 0.50

get_value(item= `O=C1c2ccccc2N=C(c2cc3c(cc2Cl)Sc2nccn2S3(=O)=O)OS(=O)(=O)N1c1ccccc1` , readout=log10(TGI)) returns 1.96

get_value(item= `O=[N+]([O-])c1cc(C2(N3CCCCC3)CCCCC2)sc1Br` , readout=log10(TGI)) returns 1.39

get_value(item= CC(=O)O[C@@H]1[C@H](OC2CCCCC2(c2ccccc2)c2ccccc2)O[N+]([O-])=CC12CCCCC2 (some centres not stated) , readout=log10(TGI)) returns 1.50

get_value(item= `CC(=O)Nc1ccc(-c2nnc(SCC(=O)Nc3cccc(C)c3)o2)cc1` , readout=log10(TGI)) returns 1.42

get_value(item= `Cc1c2cnccc2c(C)c2c1c1cc(O)ccc1n2C(C)C` , readout=log10(TGI)) returns 0.72

get_value(item= `O/N=C1/CCCC/C1=C/C=C/c1ccccc1` , readout=log10(TGI)) returns 1.69

get_value(item= Cc1c(C)c2c(c(C)c1OC(=O)CCC(=O)[O-])CCC(C)(CCCCCCCCCCC[P+](c1ccccc1)(c1ccccc1)c1ccccc1)O2 (configuration not stated) , readout=log10(TGI)) returns 0.15

get_value(item= Cc1cccc(C(C)(C)C)c1NC(=O)C(C#N)C1=C(Cl)C(=O)c2ccccc2C1=O (configuration not stated) , readout=log10(TGI)) returns 1.45

----------
Reported TGI is given for each of the following compounds.
System: OVCAR-4 ovarian
Experiment: NCI tumour cell line growth inhibition, 48 h
Numbers only; they are read as µM.

• CCOC(=O)Cc1c(C)c2ccc(OC(C)=O)c(OC(C)=O)c2oc1=O = 64

get_value(item= `CC1=C(C(=O)Nc2cccc(Cl)c2)C(c2ccccc2O)C(C(=O)Nc2cccc(Cl)c2)=C(C)N1` , readout=TGI) returns 35.6

----------
System: HOP-62 NSCLC
Experiment: NCI tumour cell line growth inhibition, 48 h
Endpoint name: TGI

* NC(Cc1ccc(O)cn1)C(=O)NC(C(=O)O)c1ccccc1 (centres undefined) | > 100 µM

Field: next compound
get_value(item= `COC(=O)c1cc(-c2ccc3ccccc3c2)[nH]c(=O)c1C#N` , readout=TGI) returns > 100 µM

----------
System: A498 renal
Experiment: NCI tumour cell line growth inhibition, 48 h
Endpoint name: TGI (µM)
Numbers only; they are read as µM.

• CCCCCCCCCCC(=O)CCCCCCC(=O)O = 42.7
• CC(=O)O[C@@H]1[C@H](OC2CCCCC2(c2ccccc2)c2ccccc2)O[N+]([O-])=CC12CCCCC2 (stereo partly specified) = 29.9

get_value(item= `O=C1/C(=C/c2cccnc2)SC(=S)N1Cc1ccco1` , readout=TGI) returns 70.6

----------
Tested on: HCC-2998 colon
Test: NCI tumour cell line growth inhibition, 48 h
Reported TGI is given for each of the following compounds.

Solved entries:
- COc1cccc(/C=N/[N-]C(=O)c2ccncc2)c1[O-].[Mn+2].[OH3+]: > 100 µM
- CCCCC(C(=O)C(=O)Nc1ccc(C)cc1C)C(=O)C(C)C (stereo unspecified): > 100 µM
- N#CCc1c(F)c(F)c(F)c(F)c1F: > 100 µM

get_value(item= `Cc1ccccc1/C=C/c1csnn1` , readout=TGI) returns > 100 µM

get_value(item= `O=C1c2ccccc2N=C(c2cc3c(cc2Cl)Sc2nccn2S3(=O)=O)OS(=O)(=O)N1c1ccccc1` , readout=TGI) returns 36 µM

----------
Test system: HS 578T breast
Assay: NCI tumour cell line growth inhibition, 48 h
Endpoint name: TGI

* Nc1n[n+]([O-])c2cc([N+](=O)[O-])ccc2[n+]1[O-] | 44 µM
* CC1(C)OB(c2ccc(N(CCOS(C)(=O)=O)CCOS(C)(=O)=O)cc2)OC1(C)C | > 87 µM

get_value(item= `CCCCCC/C=C/C#CCCCCCCCC(=O)O` , readout=TGI) returns > 100 µM

get_value(item= `CC/C=C\C[C@H]1C/C=C2/C(=O)C=C[C@H]2C/C=C\CCCC(=O)O1` , readout=TGI) returns > 50 µM

get_value(item= `COC(=O)[C@H](CNC(=O)/C=C/c1ccc(OC(C)=O)c(OC(C)=O)c1)NC(=O)/C=C/c1ccc(OC(C)=O)c(OC(C)=O)c1` , readout=TGI) returns > 100 µM

get_value(item= `CCN(CC)CCNc1c2ccccc2nc2cccc([N+](=O)[O-])c12` , readout=TGI) returns 0.039 µM

get_value(item= `COc1ccccc1-n1cnc2c1NC(C)(C)N=C2C(N)=O` , readout=TGI) returns > 100 µM

get_value(item= `O=[N+]([O-])c1cc(Br)cc2cc(Cl)cnc12` , readout=TGI) returns > 100 µM

get_value(item= `c1ccc(CN2CCC(=NN3CCCCC3)CC2)cc1` , readout=TGI) returns > 100 µM
